I'd be grateful if you could share measured Substrate use, 590 nm absorbance normalized to zero hour, 7 hr for these entries.
- System: NHBE cells
- Assay Explanation: Biolog metabolic array: substrate use by NHBE cells with or without CA09 infection
- Type: cell-based, human
- Conditions Used: Control (uninfected) NHBE cells, Biolog PMM2, 7 hr

## Task I am curious: what Substrate use, 590 nm absorbance normalized to zero hour, 7 hr value has been reported for OC[C@H]1O[C@@H]2O[C@H]3[C@H](O)[C@@H](O)[C@@H](O[C@H]4[C@H](O)[C@@H](O)[C@@H](O[C@H]5[C@H](O)[C@@H](O)[C@@H](O[C@H]6[C@H](O)[C@@H](O)[C@@H](O[C@H]7[C@H](O)[C@@H](O)[C@@H](O[C@H]1[C@H](O)[C@H]2O)O[C@@H]7CO)O[C@@H]6CO)O[C@@H]5CO)O[C@@H]4CO)O[C@@H]3CO [a-Cyclo-dextrin] ?
## Result 4.96

## Task Check OC[C@H]1OC(O)[C@@H](O)[C@@H](O)[C@@H]1O (stereo partly drawn) [D-Mannose] too.
## Result 8.62

## Task Next up: O=C(O)CCC(=O)C(=O)O [a-Keto-Glutaric Acid]
## Result 1.61

## Task Could you do the same for OC[C@H]1O[C@H](O[C@H]2[C@H](O)[C@@H](O)[C@H](O)O[C@@H]2CO)[C@H](O)[C@@H](O)[C@@H]1O [Maltose] , please?
## Result 1.53

## Task Same lookup for CO[C@@H]1OC[C@@H](O)[C@H](O)[C@H]1O [b-Methyl-D-Xyloside] , please.
## Result 4.46

## Task Would you mind doing O=C(CO)[C@@H](O)[C@H](O)[C@H](O)CO [D-Fructose] as well?
## Result 3.18

----------
- Test system: NHBE cells
- Assay Explanation: Biolog metabolic array: substrate use by NHBE cells with or without CA09 infection
- Format: cell-based, human
- Conditions Used: Virus: CA09-infected NHBE cells, MOI 1; Biolog PMM2; 4 hr
Mark T for reported 590 nm absorbance normalized to zero hour (substrate use), 4 hr of 1 or greater; mark F for anything smaller.

## Task Assess whether reported 590 nm absorbance normalized to zero hour (substrate use), 4 hr for NCCCC(=O)O [g-Amino Butyric Acid] sits at 1 or higher.
## Result T

## Task Likewise for NCCO [2-Aminoethanol] ?
## Result T

## Task Follow-up entry: O=C(O)CC(CC(=O)O)C(=O)O [Tricarballylic Acid]
## Result F

## Task What about OC[C@@]12OC[C@@H](O1)[C@@H](O)[C@@H](O)[C@@H]2O [Sedoheptulosan] ?
## Result T

## Task Try CC(O)C(C)O (centres unmarked) [2,3-Butanediol] next.
## Result F

----------
- Tested on: NHBE cells
- Assay Explanation: Biolog metabolic array: substrate use by NHBE cells with or without CA09 infection
- Assay type: cell-based, human
- Conditions Used: Control (uninfected) NHBE cells, 2 hr
Assign 590 nm absorbance normalized to zero hour (substrate use), 2 hr to each entry below.
# print the numeric value only

## Task Look up 590 nm absorbance normalized to zero hour (substrate use), 2 hr: Cc1cn([C@H]2C[C@H](O)[C@@H](CO)O2)c(=O)[nH]c1=O
## Result 1.61

## Task Then this compound: O=C(O)CCCO [g-Hydroxy-Butyric Acid]
## Result 1.38

## Task Next up: CO[C@H]1O[C@H](CO)[C@H](O)[C@H](O)[C@H]1O [a-Methyl-D-Galactoside]
## Result 0.68

## Task Now give it for OC[C@@H](O)[C@@H](O)CO too.
## Result 2.33

## Task Note, next up: CC[C@H](O)C(=O)O (racemic) [D,L-a-Hydroxy-Butyric Acid]
## Result 1.05

## Task Would you mind doing OC[C@H]1O[C@@H](O[C@@H]2[C@@H](CO)OC(O)(CO)[C@H]2O)[C@H](O)[C@@H](O)[C@H]1O (mixture of isomers) as well?
## Result 2.30

## Task Then what about the compound C[C@H](O)[C@H](O)[C@@H](O)[C@@H](O)C=O ?
## Result 1.52

## Task Now the compound O=C(CO)[C@@H](O)[C@H](O)[C@H](O)CO
## Result 2.22

## Task Let us now turn to CC(=O)CC(=O)O
## Result 1.37
